All values here come from paper PMC5569935.

# TGT: succinate dehydrogenase (SDH) (Rattus norvegicus, UniProt P21913+Q641Z9+Q6PCT8+Q920L2)
# Construct: from tissue; host or cells: mitochondria isolated from rat interscapular brown adipose tissue
# Sequence (Q920L2 35-656): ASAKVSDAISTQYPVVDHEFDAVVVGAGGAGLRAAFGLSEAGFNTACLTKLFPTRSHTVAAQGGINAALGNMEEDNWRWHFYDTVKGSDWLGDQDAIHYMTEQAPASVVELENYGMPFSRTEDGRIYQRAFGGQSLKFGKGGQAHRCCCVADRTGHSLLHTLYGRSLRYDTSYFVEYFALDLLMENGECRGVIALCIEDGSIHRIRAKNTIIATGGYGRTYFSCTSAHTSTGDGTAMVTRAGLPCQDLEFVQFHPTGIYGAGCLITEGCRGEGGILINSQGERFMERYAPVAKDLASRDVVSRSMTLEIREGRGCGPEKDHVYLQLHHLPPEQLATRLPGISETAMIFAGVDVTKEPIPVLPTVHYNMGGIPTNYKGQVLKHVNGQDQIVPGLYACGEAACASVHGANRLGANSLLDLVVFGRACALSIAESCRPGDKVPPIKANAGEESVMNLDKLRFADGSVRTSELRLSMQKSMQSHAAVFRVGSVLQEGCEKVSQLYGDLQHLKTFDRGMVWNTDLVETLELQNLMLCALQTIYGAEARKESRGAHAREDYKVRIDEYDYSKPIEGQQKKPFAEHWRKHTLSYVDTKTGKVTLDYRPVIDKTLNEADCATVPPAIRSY
# Sequence (P21913 31-282): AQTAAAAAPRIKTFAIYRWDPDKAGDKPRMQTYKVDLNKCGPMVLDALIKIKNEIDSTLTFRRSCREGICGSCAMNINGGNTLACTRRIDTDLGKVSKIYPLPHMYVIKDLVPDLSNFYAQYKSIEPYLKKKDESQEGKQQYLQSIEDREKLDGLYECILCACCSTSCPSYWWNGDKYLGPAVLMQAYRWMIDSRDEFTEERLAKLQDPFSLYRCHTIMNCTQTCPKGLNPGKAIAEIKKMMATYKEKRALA
# Sequence (Q641Z9 30-169 limits assumed): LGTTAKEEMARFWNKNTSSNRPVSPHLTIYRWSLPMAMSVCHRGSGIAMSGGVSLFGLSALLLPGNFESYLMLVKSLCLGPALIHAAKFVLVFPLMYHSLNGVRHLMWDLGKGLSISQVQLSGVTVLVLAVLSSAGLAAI
# Sequence (Q6PCT8 57-159): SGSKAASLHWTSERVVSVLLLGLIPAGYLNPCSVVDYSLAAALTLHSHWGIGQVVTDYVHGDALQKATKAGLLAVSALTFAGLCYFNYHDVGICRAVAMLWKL
# MEASUREMENT_PROTOCOL: SDH activity (succinate:CoQ1 oxidoreductase / succinate respiration) in BAT mitochondria
# Assay type: biochemical
# ASSAY_CONDITIONS: enzyme activity and oxygen consumption, 10 mM succinate (Figures 4(b) and 4(d)); read-out: IC50, nonspecific action on SDH

| SMILES_TEXT | IC50 |
| --- | --- |
| O=C(O)CCC(=O)Nc1ccc(-c2nc3ccccc3[nH]2)cc1 | ~80 µM |
